Target: EP4 (Homo sapiens, UniProt P35408)
Sequence (P35408 whole entry): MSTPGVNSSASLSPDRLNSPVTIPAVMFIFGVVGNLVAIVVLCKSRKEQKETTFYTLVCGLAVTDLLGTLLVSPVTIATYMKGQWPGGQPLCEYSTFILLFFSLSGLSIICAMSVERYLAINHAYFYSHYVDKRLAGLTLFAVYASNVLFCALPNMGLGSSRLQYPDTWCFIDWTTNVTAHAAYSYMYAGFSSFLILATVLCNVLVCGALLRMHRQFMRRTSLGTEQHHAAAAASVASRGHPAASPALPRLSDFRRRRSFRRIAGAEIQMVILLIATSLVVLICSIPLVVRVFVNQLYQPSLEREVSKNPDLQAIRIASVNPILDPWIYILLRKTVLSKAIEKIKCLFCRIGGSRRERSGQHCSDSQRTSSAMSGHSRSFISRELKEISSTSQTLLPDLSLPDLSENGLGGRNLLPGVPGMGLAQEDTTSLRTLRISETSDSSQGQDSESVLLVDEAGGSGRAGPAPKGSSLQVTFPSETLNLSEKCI
Assay: EP4 flipr
Catalogue of pEC50 values
# pEC50: negative log10 of molar concentration; output just the value

Known results for compounds:
O=C(O)c1csc(SCC[C@@H]2[C@@H](C#Cc3cc(Cl)cc(Cl)c3)[C@H](O)C[C@H]2Cl)n1	8.48
C/C=C/c1cc(Cl)cc(/C=C\[C@@H]2[C@@H](CCCc3ccc(C(=O)O)s3)[C@H](Cl)C[C@H]2O)c1	5.19
CCc1cccc(C#C[C@@H]2[C@@H](CCCc3ccc(C(=O)O)s3)[C@H](Cl)C[C@H]2O)c1	6.21
Cc1cccc(/C=C/[C@@H]2[C@@H](CCCc3ccc(C(=O)O)s3)[C@H](Cl)C[C@H]2O)c1	4.77
O=C(O)c1ccc(CCC[C@@H]2[C@@H](C#Cc3cccs3)[C@H](O)C[C@H]2Cl)s1	5.23

Challenge: Name the recorded pEC50 for O=C(O)c1csc(SCC[C@@H]2[C@@H](C#Cc3ccccc3)[C@H](O)C[C@H]2Cl)n1 .
Response given: 8.00

Challenge: Same thing, different compound: Cc1cc(C)cc(/C=C/[C@@H]2[C@@H](CCCc3ccc(C(=O)O)s3)[C@H](Cl)C[C@H]2O)c1
Response given: 5.00

Challenge: Same thing, different compound: O=C(O)c1ccc(CCC[C@@H]2[C@@H](C#Cc3ccccc3)[C@H](O)C[C@H]2F)s1
Response given: 4.58

Challenge: Same thing, different compound: O=C(O)c1ccc(CCC[C@@H]2[C@@H](C#Cc3ccsc3)[C@H](O)C[C@H]2Cl)s1
Response given: 5.23

###

Biological target: EP2 (Homo sapiens)
Experiment: EP2 binding Ki
pKi: −log10 of the molar value.
We use 8 as the dividing line for pKi: on or above the line is TRUE, below is FALSE.

Challenge: Please check the record O=C(O)c1ccc(CCC[C@@H]2[C@@H](C#Cc3ccncc3)[C@H](O)C[C@H]2Cl)s1 and state if its pKi is at or above 8.
Response given: FALSE

Challenge: Same thing, different compound: O=C(O)c1csc(SCC[C@@H]2[C@@H](C#Cc3cc(Cl)cc(Cl)c3)[C@H](O)C[C@H]2Cl)n1
Response given: TRUE

Challenge: Same thing, different compound: O=C(O)c1ccc(CCC[C@@H]2[C@@H](/C=C/c3cc(Cl)cc(CO)c3)[C@H](O)C[C@H]2Cl)s1
Response given: TRUE

Challenge: Same thing, different compound: O=C(O)c1csc(SCC[C@@H]2[C@@H](C#Cc3ccccc3)[C@H](O)C[C@H]2Cl)n1
Response given: TRUE

Challenge: Same thing, different compound: O=C(O)c1ccc(CCC[C@@H]2[C@@H](/C=C\c3cc(F)cc(F)c3)[C@H](O)C[C@H]2Cl)s1
Response given: FALSE

###

Target: EP2 (Homo sapiens, UniProt P43116)
Sequence (P43116 whole entry): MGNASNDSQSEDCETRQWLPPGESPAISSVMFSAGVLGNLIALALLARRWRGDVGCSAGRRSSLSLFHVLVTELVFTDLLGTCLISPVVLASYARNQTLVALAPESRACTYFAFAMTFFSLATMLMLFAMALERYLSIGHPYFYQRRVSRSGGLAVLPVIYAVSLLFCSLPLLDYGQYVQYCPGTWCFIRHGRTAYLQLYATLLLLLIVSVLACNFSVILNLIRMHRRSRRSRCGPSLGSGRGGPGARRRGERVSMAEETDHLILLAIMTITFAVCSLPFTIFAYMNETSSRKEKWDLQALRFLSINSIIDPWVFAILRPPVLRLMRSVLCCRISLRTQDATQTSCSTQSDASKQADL
Assay: EP2 flipr
Assay type: cell-based
Catalogue of pEC50 values
# pEC50: negative log10 of molar concentration; output just the value

O=C(O)c1ccc(CCC[C@@H]2[C@@H](/C=C\c3cc(Cl)nc(Cl)c3)[C@H](O)C[C@H]2Cl)s1	6.34
O=C(O)c1ccc(CCC[C@@H]2[C@@H](/C=C/c3cncc(Cl)c3)[C@H](O)C[C@H]2Cl)s1	7.00
O=C(O)c1ccc(CCC[C@@H]2[C@@H](C#Cc3cccnc3)[C@H](O)C[C@H]2Cl)s1	8.70
Cc1cccc(/C=C/[C@@H]2[C@@H](CCCc3ccc(C(=O)O)s3)[C@H](Cl)C[C@H]2O)c1	7.77
O=C(O)c1ccc(CCC[C@H]2C(=O)C[C@@H](O)[C@@H]2C#Cc2ccccc2)s1	8.05
CCc1cccc(C#C[C@@H]2[C@@H](CCCc3ccc(C(=O)O)s3)[C@H](Cl)C[C@H]2O)c1	7.25

Here's the next entry for you.
Challenge: Name the recorded pEC50 for Cc1cc(C)cc(/C=C/[C@@H]2[C@@H](CCCc3ccc(C(=O)O)s3)[C@H](Cl)C[C@H]2O)c1 .
Response given: 6.48

###

Biological target: EP2 (Homo sapiens, UniProt P43116)
Assay: EP2 flipr
Assay type: cell-based
QUANTITY: pEC50
# pEC50: negative log10 of molar concentration; output just the value

Known results for compounds:
O=C(O)c1ccc(CCC[C@@H]2[C@@H](C#Cc3cc(Cl)cc(Cl)c3)[C@H](O)C[C@H]2Cl)s1	6.88
O=C(O)c1ccc(CCC[C@@H]2[C@@H](C#Cc3ccccc3)[C@H](O)C[C@H]2C(F)(F)F)s1 (single isomer, unassigned)	6.97

Challenge: Name the recorded pEC50 for O=C(O)c1ccc(CCC[C@H]2C(C(F)(F)F)C[C@@H](O)[C@@H]2C#Cc2ccccc2)s1 (single isomer, unassigned) .
Response given: 7.10

###

# Ki per entry for EP4 (Homo sapiens, UniProt P35408)
Give the value in nM but do not write nM after it.

Known results for compounds:
C=CCCc1cccc(C#C[C@@H]2[C@@H](CCCc3ccc(C(=O)O)s3)[C@H](Cl)C[C@H]2O)c1 [Example 27]	436
O=C(O)c1ccc(CCC[C@@H]2[C@@H](/C=C/c3cc(F)cc(F)c3)[C@H](O)C[C@H]2Cl)s1 [Example 6]	878

Here's the next entry for you.
Challenge: Name the recorded Ki for O=C(O)c1ccc(CCC[C@@H]2[C@@H](/C=C/c3cc(Cl)cc(CO)c3)[C@H](O)C[C@H]2Cl)s1 [Example 2] .
Response given: 135

###

Biological target: UniProt:P43116
Ki vs 10 nM: less than gives rule met; not less than gives rule not met.

O=C(O)c1ccc(CCC[C@@H]2C(=O)C[C@@H](O)[C@@H]2C#Cc2ccccc2)s1	rule not met
O=C(O)c1ccc(CCC[C@H]2C(=O)C[C@@H](O)[C@@H]2C#Cc2ccccc2)s1	rule met
O=C(O)c1ccc(CCC[C@@H]2[C@@H](C#Cc3ccccc3)[C@H](O)C[C@H]2C(F)(F)F)s1 (single isomer, unassigned)	rule not met
O=C(O)c1ccc(CCC[C@@H]2[C@@H](C#Cc3ccccc3)[C@H](O)C[C@H]2F)s1	rule met
N#C[C@@H]1C[C@@H](O)[C@H](C#Cc2ccccc2)[C@H]1CCCc1ccc(C(=O)O)s1	rule not met

Challenge: Consider O=C(O)c1ccc(CCC[C@@H]2[C@@H](/C=C/c3cc(F)cc(F)c3)[C@H](O)C[C@H]2Cl)s1 . Does its Ki lie strictly below 10 nM?
Response given: rule met

Challenge: Same thing, different compound: O=C(O)c1ccc(CCC[C@@H]2[C@@H](C#Cc3ccsc3)[C@H](O)C[C@H]2Cl)s1
Response given: rule not met

Challenge: Same thing, different compound: C/C=C/c1cc(Cl)cc(/C=C\[C@@H]2[C@@H](CCCc3ccc(C(=O)O)s3)[C@H](Cl)C[C@H]2O)c1
Response given: rule not met

Challenge: Same thing, different compound: Cc1cc(C)cc(/C=C/[C@@H]2[C@@H](CCCc3ccc(C(=O)O)s3)[C@H](Cl)C[C@H]2O)c1
Response given: rule met
